- target-desc: GIPC2, Q8TF65
- Sequence (Q8TF65 112-203): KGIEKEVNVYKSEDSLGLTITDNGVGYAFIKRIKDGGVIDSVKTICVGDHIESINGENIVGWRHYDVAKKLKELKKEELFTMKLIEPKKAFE
- test-method-notes: holdup assay
- Design: key: below the threshold = too weak to quantify, mostly under pKd 3.1 to 4
- condition-notes: plain residues with an end cap or a label only (N-terminal biotin on a linker: ahx)
measured-attribute: pKd

binder	reported-result
QDEKVKESYV [ABCA1, O95477]	4.26
APSRKLNTEI [TIAM1, Q13009]	below the threshold
TEAKLTETNA [MYO18A, Q92614]	below the threshold
QPRTWLQSPV [RTKN, Q9BST9]	below the threshold
